Could you please report measured GI% for the items listed next?
# System: EKVX
# measurement-notes: NCI single-dose GI%, NSC lung
# Format: cell-based, human
# experimental-context: 10.0 μM in one dose
Give bare numbers, in %.

Use these answered entries as a reference point.
[
  {
    "compound": "COc1ccc(C2=NN(C(=O)c3ccc(S(C)(=O)=O)cc3)C(c3ccccc3)C2)c(OC)c1 (stereo not shown) [Compound 18n]",
    "unit-of-measurement": "%",
    "obs-value": 28
  },
  {
    "compound": "CS(=O)(=O)c1ccc(C(=O)N2N=C(c3ccccc3)CC2c2ccc(F)cc2)cc1 (stereo not shown) [Compound 18c]",
    "unit-of-measurement": "%",
    "obs-value": 15
  },
  {
    "compound": "CS(=O)(=O)c1ccc(C(=O)N2N=C(c3ccccc3)CC2c2ccccc2)cc1 (stereo not shown) [Compound 18a]",
    "unit-of-measurement": "%",
    "obs-value": 11
  }
]

Next compound, GI% to be filled in.
According to the records, this compound CS(=O)(=O)c1ccc(C(=O)N2N=C(c3ccccc3)CC2c2ccc(Cl)cc2)cc1 (stereo not shown) [Compound 18b] displays GI% of 21

---

Could you please report measured GI% for the items listed next?
# Test system: SNB-75
# measurement-notes: NCI single-dose GI%, CNS
# Assay type: cell-based, human
# experimental-context: SNB-75, CNS; 10.0 μM in one dose
Form field: result (number plus unit)

Use these answered entries as a reference point.
[
  {
    "compound": "Cc1ccc(C2=NN(C(=O)c3ccc(S(C)(=O)=O)cc3)C(c3ccc(C)cc3)C2)cc1 (centres unmarked) [Compound 18g]",
    "GI%": "30%"
  },
  {
    "compound": "COc1ccc(C2=NN(C(=O)c3ccc(S(C)(=O)=O)cc3)C(c3ccc(OC)cc3)C2)cc1 (centres unmarked) [Compound 18l]",
    "GI%": "11%"
  },
  {
    "compound": "COc1ccc(C2=NN(C(=O)c3ccc(S(C)(=O)=O)cc3)C(c3ccccc3)C2)cc1 (centres unmarked) [Compound 18k]",
    "GI%": "11%"
  },
  {
    "compound": "COc1ccc(C2=NN(C(=O)c3ccc(S(C)(=O)=O)cc3)C(c3ccccc3)C2)c(OC)c1 (centres unmarked) [Compound 18n]",
    "GI%": "15%"
  },
  {
    "compound": "CS(=O)(=O)c1ccc(C(=O)N2N=C(c3ccccc3)CC2c2ccc(Cl)cc2)cc1 (centres unmarked) [Compound 18b]",
    "GI%": "13%"
  }
]

Dear colleague, could you send me GI% for each of the items below? Thanks.
1. COc1ccc(C2=NN(C(=O)c3ccc(S(C)(=O)=O)cc3)C(c3cc(OC)c(OC)c(OC)c3)C2)cc1OC (centres unmarked) [Compound 18q]
2. CS(=O)(=O)c1ccc(C(=O)N2N=C(c3ccc(F)cc3)CC2c2ccc(F)cc2)cc1 (centres unmarked) [Compound 18e]
3. COc1ccc(C2CC(c3ccccc3)=NN2C(=O)c2ccc(S(C)(=O)=O)cc2)cc1 (centres unmarked) [Compound 18j]

13%
18%
12%

---

Could you please report measured GI% for the items listed next?
# Test system: HOP-62
# measurement-notes: NCI single-dose GI%, NSC lung
# Format: cell-based, human
# experimental-context: HOP-62, NSC lung; 10.0 μM in one dose
Answers are plain numbers, in %.

[
  {
    "compound": "CS(=O)(=O)c1ccc(C(=O)N2N=C(c3ccccc3)CC2c2ccc(Cl)cc2)cc1 (stereo not shown) [Compound 18b]",
    "GI%, %": 29
  },
  {
    "compound": "CS(=O)(=O)c1ccc(C(=O)N2N=C(c3ccc(F)cc3)CC2c2ccccc2)cc1 (stereo not shown) [Compound 18d]",
    "GI%, %": 29
  },
  {
    "compound": "COc1ccc(C2=NN(C(=O)c3ccc(S(C)(=O)=O)cc3)C(c3ccccc3)C2)c(OC)c1 (stereo not shown) [Compound 18n]",
    "GI%, %": 20
  },
  {
    "compound": "CS(=O)(=O)c1ccc(C(=O)N2N=C(c3ccccc3)CC2c2ccccc2O)cc1 (stereo not shown) [Compound 18h]",
    "GI%, %": 47
  },
  {
    "compound": "COc1ccccc1C1CC(c2ccccc2)=NN1C(=O)c1ccc(S(C)(=O)=O)cc1 (stereo not shown) [Compound 18i]",
    "GI%, %": 20
  },
  {
    "compound": "Cc1ccc(C2CC(c3ccccc3)=NN2C(=O)c2ccc(S(C)(=O)=O)cc2)cc1 (stereo not shown) [Compound 18f]",
    "GI%, %": 12
  },
  {
    "compound": "COc1ccc(C2=NN(C(=O)c3ccc(S(C)(=O)=O)cc3)C(c3ccc(OC)c(OC)c3)C2)c(OC)c1 (stereo not shown) [Compound 18p]",
    "GI%, %": 26
  },
  {
    "compound": "Cc1ccc(C2=NN(C(=O)c3ccc(S(C)(=O)=O)cc3)C(c3ccc(C)cc3)C2)cc1 (stereo not shown) [Compound 18g]",
    "GI%, %": 26
  },
  {
    "compound": "COc1ccc(C2=NN(C(=O)c3ccc(S(C)(=O)=O)cc3)C(c3ccc(OC)cc3)C2)cc1 (stereo not shown) [Compound 18l]",
    "GI%, %": 11
  },
  {
    "compound": "COc1ccc(C2CC(c3ccc(OC)cc3OC)=NN2C(=O)c2ccc(S(C)(=O)=O)cc2)cc1 (stereo not shown) [Compound 18o]",
    "GI%, %": 18
  }
]

Dear colleague, could you send me GI% for each of the items below? Thanks.
1. CS(=O)(=O)c1ccc(C(=O)N2N=C(c3ccccc3)CC2c2ccc3c(c2)OCO3)cc1 (stereo not shown) [Compound 18m]
2. CS(=O)(=O)c1ccc(C(=O)N2N=C(c3ccccc3)CC2c2ccc(F)cc2)cc1 (stereo not shown) [Compound 18c]

1: 17; 2: 26

Considering CS(=O)(=O)c1ccc(C(=O)N2N=C(c3ccc(F)cc3)CC2c2ccc(F)cc2)cc1 (stereo not shown) [Compound 18e] , its GI% with HOP-62 was recorded as 14

Data origin: paper PMC11240878
